Target: FPR2 (Homo sapiens)
Sequence (P25090 1-351): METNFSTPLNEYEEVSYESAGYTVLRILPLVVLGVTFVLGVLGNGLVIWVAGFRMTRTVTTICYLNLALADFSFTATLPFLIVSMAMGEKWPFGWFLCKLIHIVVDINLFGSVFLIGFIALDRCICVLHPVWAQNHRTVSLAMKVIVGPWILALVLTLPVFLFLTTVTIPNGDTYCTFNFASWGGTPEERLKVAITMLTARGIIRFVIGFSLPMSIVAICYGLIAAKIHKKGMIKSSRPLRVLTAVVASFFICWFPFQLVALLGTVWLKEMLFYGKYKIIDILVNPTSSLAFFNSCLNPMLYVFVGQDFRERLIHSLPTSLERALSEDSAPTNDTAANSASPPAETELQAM
Test: Change in calcium activity by peptide (Fura-2) in RBL cells overexpressing FPR2
Settings: calcium activity (Fura-2), graded per Table 3, read-out: EC50 for [Ca^2+] FPR2
pEC50: −log10 of the molar value. Peptide text beside a SMILES is read from it.
recordedEndpoint: pEC50

## Task Look up pEC50: CSCC[C@@H](NC(=O)[C@H](Cc1ccc(O)cc1)NC(=O)[C@H](CCCCN)NC(=O)[C@H](Cc1ccc(O)cc1)NC(=O)[C@H](CCCCN)NC(=O)[C@H](Cc1c[nH]c2ccccc12)NC(=O)[C@H](CCCCN)NC(C)=O)C(N)=O [Peptide 36] (HELM PEPTIDE1{[ac].K.W.K.Y.K.Y.[dM].[am]}$$$$V2.0)
## Result > 8.00

## Task Look up pEC50: CCCC(=O)N[C@@H](CCSC)C(=O)N[C@@H](CCCCN)C(=O)N[C@@H](Cc1ccc(O)cc1)C(=O)N[C@@H](Cc1c[nH]c2ccccc12)C(=O)N[C@@H](Cc1ccc(O)cc1)C(=O)N[C@H](CCSC)C(N)=O [Peptide 91] (HELM PEPTIDE1{[CCCC(=O)[*:2]].M.K.Y.W.Y.[dM].[am]}$$$$V2.0)
## Result 7.00 to 7.96

## Task Look up pEC50: CC[C@H](C)[C@H](N)C(=O)N[C@@H](CCCCN)C(=O)N[C@@H](CCCCN)C(=O)N[C@@H](Cc1c[nH]c2ccccc12)C(=O)N[C@@H](CCSC)C(=O)N[C@H](CCSC)C(N)=O [Peptide 130] (HELM PEPTIDE1{I.K.K.W.M.[dM].[am]}$$$$V2.0)
## Result 7.00 to 7.96

## Task Look up pEC50: CSCC[C@@H](NC(=O)[C@H](Cc1ccc(O)cc1)NC(=O)[C@H](Cc1c[nH]c2ccccc12)NC(=O)[C@H](Cc1ccc(O)cc1)NC(=O)[C@H](CCCNC(=N)N)NC(=O)[C@@H](N)Cc1c[nH]c2ccccc12)C(N)=O [Peptide 79] (HELM PEPTIDE1{W.R.Y.W.Y.[dM].[am]}$$$$V2.0)
## Result 7.00 to 7.96

## Task Look up pEC50: CSCC[C@H](N)C(=O)N[C@@H](CCCCN)C(=O)N[C@@H](Cc1ccc(O)cc1)C(=O)N[C@@H](Cc1c[nH]c2ccccc12)C(=O)N[C@@H](Cc1ccc(O)cc1)C(=O)N[C@H](CCSC)C(N)=O [Peptide 89] (HELM PEPTIDE1{M.K.Y.W.Y.[dM].[am]}$$$$V2.0)
## Result > 8.00

## Task Look up pEC50: CCCCCCCC(=O)N1CCC[C@H]1C(=O)N[C@@H](CCSC)C(=O)N[C@@H](CCCCN)C(=O)N[C@@H](Cc1ccc(O)cc1)C(=O)N[C@@H](CCCCN)C(=O)N[C@H](C(=O)N[C@H](CCSC)C(N)=O)C(C)C [Peptide 28] (HELM PEPTIDE1{[CCCCCCCC(=O)[*:2]].P.M.K.Y.K.V.[dM].[am]}$$$$V2.0)
## Result > 8.00

## Task Look up pEC50: CC[C@H](C)[C@H](NC(=O)[C@H](CCCNC(=N)N)NC(=O)[C@H](Cc1ccc(O)cc1)NC(=O)[C@H](CCCNC(=N)N)NC(=O)[C@H](Cc1c[nH]c2ccccc12)NC(=O)[C@@H](N)CCCNC(=N)N)C(=O)N[C@H](CCSC)C(N)=O [Peptide 152] (HELM PEPTIDE1{R.W.R.Y.R.I.[dM].[am]}$$$$V2.0)
## Result 7.00 to 7.96

---

Target: FPR2 (Homo sapiens, UniProt P25090)
Sequence (P25090 1-351): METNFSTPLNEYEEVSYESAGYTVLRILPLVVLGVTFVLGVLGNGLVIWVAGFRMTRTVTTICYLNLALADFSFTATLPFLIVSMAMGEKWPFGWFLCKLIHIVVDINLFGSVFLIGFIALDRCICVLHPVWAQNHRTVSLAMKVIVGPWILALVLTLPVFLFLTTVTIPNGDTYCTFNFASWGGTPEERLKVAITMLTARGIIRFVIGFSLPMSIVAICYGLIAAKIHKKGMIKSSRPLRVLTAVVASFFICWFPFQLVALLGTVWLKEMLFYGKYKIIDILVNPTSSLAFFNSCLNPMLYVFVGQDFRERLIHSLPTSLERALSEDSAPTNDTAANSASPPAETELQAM
Experiment: Change in calcium activity by peptide (Fura-2) in RBL cells overexpressing FPR2
Details: calcium activity (Fura-2), graded per Table 3, read-out: EC50 for [Ca^2+] FPR2
Peptide text beside a SMILES is read from it.
Give measured EC50 for each item. Keep answers brief.

## Task Look up EC50: CSCC[C@@H](NC(=O)[C@@H]1CCCN1C(=O)[C@H](Cc1c[nH]c2ccccc12)NC(=O)[C@H](Cc1ccc(O)cc1)NC(=O)[C@H](CCCNC(=N)N)NC(=O)[C@H](Cc1c[nH]c2ccccc12)NC(=O)[C@H](CCCNC(=N)N)NC(C)=O)C(N)=O [Peptide 117] (HELM PEPTIDE1{[ac].R.W.R.Y.W.P.[dM].[am]}$$$$V2.0)
## Result < 10 nM

## Task Look up EC50: CCCCCCCC(=O)N[C@@H](CCSC)C(=O)N[C@@H](CCCCN)C(=O)N[C@@H](Cc1ccc(O)cc1)C(=O)N[C@@H](CCCCN)C(=O)N[C@H](C(=O)N[C@H](CCSC)C(N)=O)C(C)C [Peptide 20] (HELM PEPTIDE1{[CCCCCCCC(=O)[*:2]].M.K.Y.K.V.[dM].[am]}$$$$V2.0)
## Result 11 to 100 nM

## Task Look up EC50: CCCC(=O)N[C@H](C(=O)N[C@@H](CCCCN)C(=O)N[C@@H](Cc1ccc(O)cc1)C(=O)N[C@@H](CCCCN)C(=O)N1CCC[C@H]1C(=O)N[C@H](CCSC)C(N)=O)[C@@H](C)CC [Peptide 144] (HELM PEPTIDE1{[CCCC(=O)[*:2]].I.K.Y.K.P.[dM].[am]}$$$$V2.0)
## Result < 10 nM

## Task Look up EC50: CCCC(=O)N[C@@H](CCCNC(=N)N)C(=O)N[C@@H](CCSC)C(=O)N[C@@H](CCCNC(=N)N)C(=O)N[C@@H](Cc1ccc(O)cc1)C(=O)N[C@@H](Cc1c[nH]c2ccccc12)C(=O)N[C@@H](Cc1ccc(O)cc1)C(=O)N[C@H](CCSC)C(N)=O [Peptide 83] (HELM PEPTIDE1{[CCCC(=O)[*:2]].R.M.R.Y.W.Y.[dM].[am]}$$$$V2.0)
## Result < 10 nM

## Task Look up EC50: CCCC(=O)N[C@@H](Cc1c[nH]cn1)C(=O)N[C@@H](CCSC)C(=O)N[C@@H](CCCNC(=N)N)C(=O)N[C@@H](Cc1ccc(O)cc1)C(=O)N[C@@H](Cc1c[nH]c2ccccc12)C(=O)N[C@@H](Cc1ccc(O)cc1)C(=O)N[C@H](CCSC)C(N)=O [Peptide 93] (HELM PEPTIDE1{[CCCC(=O)[*:2]].H.M.R.Y.W.Y.[dM].[am]}$$$$V2.0)
## Result < 10 nM

## Task Look up EC50: CSCC[C@@H](NC(=O)[C@@H](NC(=O)[C@H](Cc1c[nH]c2ccccc12)NC(=O)[C@H](Cc1ccc(O)cc1)NC(=O)[C@H](CCCNC(=N)N)NC(=O)[C@H](Cc1c[nH]c2ccccc12)NC(=O)[C@@H](N)CCCNC(=N)N)C(C)C)C(N)=O [Peptide 101] (HELM PEPTIDE1{R.W.R.Y.W.V.[dM].[am]}$$$$V2.0)
## Result < 10 nM
